The reported numbers originate from patent EP0779296A2.

Method notes: Sweetness potency: four tasters compare dilutions of the test compound with a 200 ppm aspartame solution
Assay type: in vivo
Recorded conditions: against 200 ppm aspartame solution; aspartame taken as 180 times sucrose
Provide the recorded Sweetness for the entries that follow.

Q) Field request: Sweetness | item: CCC[C@@H](NC(=O)[C@@H](N)CC(=O)O)C(=O)N[C@@H](C)c1ccccc1 [Example 4]
A) 90 times sucrose

Q) Similarly, CC[C@@H](NC(=O)[C@@H](N)CC(=O)O)C(=O)N[C@@H](C)c1ccccc1 [Example 3] ?
A) 360 times sucrose

Q) Also check CCCC(NC(=O)[C@@H](C)NC(=O)[C@@H](N)CC(=O)O)c1ccccc1 (stereo partly drawn) [Example 11]
A) 90 times sucrose

Q) Another compound to check: CC(C)C(NC(=O)[C@@H](C)NC(=O)[C@@H](N)CC(=O)O)c1ccccc1 (stereo partly drawn) [Example 9]
A) 180 times sucrose

Q) Do the same for C[C@@H](NC(=O)[C@@H](N)CC(=O)O)C(=O)NC(c1ccccc1)C(C)(C)C (stereo partly drawn) [Example 10] please
A) 150 times sucrose

Q) Can you check CC(C)[C@@H](NC(=O)[C@@H](N)CC(=O)O)C(=O)N[C@@H](C)c1ccccc1 [Example 5] next?
A) 540 times sucrose

Q) Now this one: CC[C@H](NC(=O)[C@@H](CC)NC(=O)[C@@H](N)CC(=O)O)c1ccccc1 [Example 14]
A) 2500 x Sucrose

Q) Another compound to check: CC[C@H](NC(=O)[C@H](NC(=O)[C@@H](N)CC(=O)O)C(C)C)c1ccccc1 [Example 15]
A) 1500 times sucrose

Q) And C[C@H](NC(=O)[C@H](NC(=O)[C@@H](N)CC(=O)O)c1ccccc1)c1ccccc1 [Example 6] ?
A) 270 times sucrose

Q) Try the compound C[C@H](NC(=O)[C@@H](C)NC(=O)[C@@H](N)CC(=O)O)c1ccccc1 [Example 2]
A) 180 times sucrose

Q) Another compound to check: CCC(NC(=O)[C@@H](C)NC(=O)[C@@H](N)CC(=O)O)c1ccccc1 (stereo partly drawn) [Example 8]
A) 270 times sucrose
